List of pIC50 values.
Test system: HeLa
EXPERIMENTAL_DETAILS: Cytotoxicity against human HeLa cells after 24 hrs by MTT assay
Format: functional, cell-based
// returns pIC50 (minus log10 of molar concentration), number only

Asked: Form field: reported pIC50 of CC(=O)OC[C@@]1(C)[C@@H]2CC[C@]3(C)[C@H](CC=C4[C@H]5[C@](C(=O)NC(C)CO)(CC[C@@H](C)[C@@]5(C)O)CC[C@]43C)[C@@]2(C)CC[C@@H]1OC(C)=O (stereo partly drawn)
Given back: 4.95

Asked: # repeat for C[C@@H]1CC[C@]2(C(=O)O)CC[C@]3(C)C(=CC[C@@H]4[C@@]5(C)CC[C@H](O)[C@@](C)(CO)[C@@H]5CC[C@]43C)[C@@H]2[C@]1(C)O
Given back: 4.50

Asked: # repeat for C[C@@H]1CC[C@]2(C(=O)NCCCO)CC[C@]3(C)C(=CC[C@@H]4[C@@]5(C)CC[C@H](O)[C@@](C)(CO)[C@@H]5CC[C@]43C)[C@@H]2[C@]1(C)O
Given back: 4.75

* * *

Test system: NCI-H446
EXPERIMENTAL_DETAILS: Cytotoxicity against human NCI-H446 cells after 24 hrs by MTT assay
Format: functional, cell-based
STATED_CONDITIONS: NCI-H446, 24 h
List of pIC50 values.
// returns pIC50 (minus log10 of molar concentration), number only

Here are 6 compounds together with their reported answers.
| COMPOUND | pIC50 |
| --- | --- |
| CC(=O)OC[C@@]1(C)[C@@H]2CC[C@]3(C)[C@H](CC=C4[C@H]5[C@](C(=O)Nc6ccccc6CO)(CC[C@@H](C)[C@@]5(C)O)CC[C@]43C)[C@@]2(C)CC[C@@H]1OC(C)=O | 5.15 |
| CC(=O)OCCCNC(=O)[C@]12CC[C@@H](C)[C@@](C)(O)[C@H]1C1=CC[C@@H]3[C@@]4(C)CC[C@H](OC(C)=O)[C@@](C)(COC(C)=O)[C@@H]4CC[C@@]3(C)[C@]1(C)CC2 | 4.89 |
| C[C@@H]1CC[C@]2(C(=O)Nc3ccccc3)CC[C@]3(C)C(=CC[C@@H]4[C@@]5(C)CC[C@H](O)[C@@](C)(CO)[C@@H]5CC[C@]43C)[C@@H]2[C@]1(C)O | 4.15 |
| CC(=O)OC[C@@]1(C)[C@@H]2CC[C@]3(C)[C@H](CC=C4[C@H]5[C@](C(=O)Nc6ccccc6)(CC[C@@H](C)[C@@]5(C)O)CC[C@]43C)[C@@]2(C)CC[C@@H]1OC(C)=O | 4.61 |
| CC(CO)NC(=O)[C@]12CC[C@@H](C)[C@@](C)(O)[C@H]1C1=CC[C@@H]3[C@@]4(C)CC[C@H](O)[C@@](C)(CO)[C@@H]4CC[C@@]3(C)[C@]1(C)CC2 (stereo partly drawn) | 4.40 |
| CC(=O)OC[C@@]1(C)[C@@H]2CC[C@]3(C)[C@H](CC=C4[C@H]5[C@](C(=O)O)(CC[C@@H](C)[C@@]5(C)O)CC[C@]43C)[C@@]2(C)CC[C@@H]1OC(C)=O | 5.15 |

Asked: Form field: reported pIC50 of C[C@@H]1CC[C@]2(C(=O)NCCCO)CC[C@]3(C)C(=CC[C@@H]4[C@@]5(C)CC[C@H](O)[C@@](C)(CO)[C@@H]5CC[C@]43C)[C@@H]2[C@]1(C)O
Given back: 4.68

Asked: # repeat for CC(=O)OC[C@@]1(C)[C@@H]2CC[C@]3(C)[C@H](CC=C4[C@H]5[C@](C(=O)NCCO)(CC[C@@H](C)[C@@]5(C)O)CC[C@]43C)[C@@]2(C)CC[C@@H]1OC(C)=O
Given back: 5.18
